Data provenance: patent US20230303690A1

Molecular target: T1, human LAG3 expressed on cells (human, UniProt P18627 23-525)
T1 sequence (looked up): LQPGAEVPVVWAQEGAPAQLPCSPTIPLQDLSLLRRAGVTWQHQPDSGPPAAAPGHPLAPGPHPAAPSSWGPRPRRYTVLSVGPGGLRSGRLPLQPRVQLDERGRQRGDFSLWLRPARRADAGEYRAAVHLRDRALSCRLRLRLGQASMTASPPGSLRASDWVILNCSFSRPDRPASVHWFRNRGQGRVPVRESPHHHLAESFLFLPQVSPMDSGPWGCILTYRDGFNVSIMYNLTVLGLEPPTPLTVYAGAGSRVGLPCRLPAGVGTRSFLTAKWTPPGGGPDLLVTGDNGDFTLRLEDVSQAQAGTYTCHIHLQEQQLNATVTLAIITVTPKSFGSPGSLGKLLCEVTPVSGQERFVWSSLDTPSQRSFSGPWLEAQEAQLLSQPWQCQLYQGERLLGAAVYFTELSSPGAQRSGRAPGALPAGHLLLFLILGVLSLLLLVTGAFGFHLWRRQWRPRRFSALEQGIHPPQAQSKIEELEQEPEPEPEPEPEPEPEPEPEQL
Test: cell-based or functional assay
Entries and their IL-2, % of BMS, at 3.703703704 ug/mL values follow.
Number only, in %; omit the unit.

binder="sdAb No. 25 (VHH, Fc of the tested form not described; also called sdAb 25; sdAb #25; not shown: Fc part implied by anti-human Fc capture and anti-human IgG Fc detection) VHH: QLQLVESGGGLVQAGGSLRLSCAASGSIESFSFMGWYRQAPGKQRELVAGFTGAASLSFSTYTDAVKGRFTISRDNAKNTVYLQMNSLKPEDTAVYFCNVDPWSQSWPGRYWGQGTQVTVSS" measured=30.6
binder="combination of sdAbs 25 and 18 (other) VHH 1: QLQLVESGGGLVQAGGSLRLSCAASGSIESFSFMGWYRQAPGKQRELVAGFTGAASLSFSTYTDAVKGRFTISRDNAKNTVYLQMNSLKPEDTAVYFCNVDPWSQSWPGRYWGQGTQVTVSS VHH 2: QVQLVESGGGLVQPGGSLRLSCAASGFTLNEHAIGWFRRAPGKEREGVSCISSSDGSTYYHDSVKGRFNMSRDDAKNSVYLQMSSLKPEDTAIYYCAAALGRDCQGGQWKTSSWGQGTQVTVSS" measured=52.9

Below: the item to evaluate.
State its IL-2, % of BMS, at 3.703703704 ug/mL for this binder: sdAb No. 18 (VHH, Fc of the tested form not described; also called sdAb 18; not shown: Fc part implied by anti-human Fc capture) VHH: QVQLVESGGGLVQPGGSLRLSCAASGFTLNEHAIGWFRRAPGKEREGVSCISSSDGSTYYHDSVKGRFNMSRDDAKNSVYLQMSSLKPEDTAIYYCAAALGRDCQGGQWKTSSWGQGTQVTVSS
35.1
